Experimental details: Gelation test in solvents at room temperature
Type: physicochemical
Set-up: key: S, soluble (starting test at 20 mg/mL); I, insoluble; P, precipitate; G, stable gel, the numbers after G are preliminary MGCs in mg/mL; UG, slightly unstable gels or partial gels, concentrations are 20 mg/mL unless otherwise noted
Measurement context: DMSO:H2O 1:2; Table 3
Measurement label: Gelation result

Guide cases for Gelation result, answers given:
{"columns": ["Molecule", "Gelation result"],
 "data": [
  ["COc1ccc(C(C(=O)NC2CCCCC2)N(C(C)=O)[C@H](C)c2ccccc2)cc1 (single isomer, unassigned) [Compound 38a]", "UG"],
  ["O=C(CN(Cc1ccccc1)C(=O)c1ccc(C(=O)N(CC(=O)NC2CCCCC2)Cc2ccccc2)cc1)NC1CCCCC1", "G"],
  ["COC1OC(CO)C(O)C(O)C1N(CC(=O)NC1CCCCC1)C(=O)c1ccc(Br)cc1 (stereo not drawn)", "G"],
  ["COc1ccc(C(C(=O)NC2CCCCC2)N(Cc2ccccc2)C(C)=O)cc1 (racemic)", "P"],
  ["O=C(O)CNC(=O)CN(Cc1ccccc1)C(=O)c1ccc(C(=O)N(CC(=O)NCC(=O)O)Cc2ccccc2)cc1", "UG"],
  ["CCOC(=O)CNC(=O)CN(C(=O)c1ccc(Br)cc1)C1C(OCC)OC2COC(c3ccccc3)OC2C1O (stereo not drawn)", "UG"],
  ["COC1OC2COC(c3ccccc3)OC2C(O)C1N(CC(=O)NC1CCCCC1)C(C)=O (stereo not drawn)", "G"],
  ["CC1(C)OCC(CN(CC(=O)NC2CCCCC2)C(=O)c2ccc(Br)cc2)O1 (stereo not drawn)", "G"]
]}

Query :: Name the recorded Gelation result for CCOC(=O)CNC(=O)CN(Cc1ccccc1)C(=O)c1ccc(C(=O)N(CC(=O)NCC(=O)OCC)Cc2ccccc2)cc1 .
Result :: P

Query :: Name the recorded Gelation result for CCOC(=O)CNC(=O)CN(Cc1ccc(OC)cc1)C(=O)CCC(=O)NC1C(OC)OC2COC(c3ccccc3)OC2C1O (stereo not drawn) .
Result :: G

Query :: Name the recorded Gelation result for COc1ccc(CN(CC(=O)NCC(=O)O)C(=O)c2ccc(Br)cc2)cc1 .
Result :: P

Query :: Name the recorded Gelation result for COc1ccc(CN(CC(=O)Nc2ccc(Oc3ccc(NC(=O)CN(Cc4ccc(OC)cc4)C(=O)c4ccc(Br)cc4)cc3)cc2)C(=O)c2ccc(Br)cc2)cc1 .
Result :: P

Query :: Name the recorded Gelation result for COc1ccc(CN(CC(=O)NCS(=O)(=O)c2ccc(C)cc2)C(=O)c2ccc(Br)cc2)cc1 .
Result :: G

Query :: Name the recorded Gelation result for O=C(CN(C(=O)c1ccccc1)c1ccccc1)NC1CCCCC1 .
Result :: P

Query :: Name the recorded Gelation result for CCOC(=O)CNC(=O)CN(CCNC(=O)OC(C)(C)C)C(=O)Cc1ccc2ccccc2c1 .
Result :: P

----------
Experimental details: Gelation test in solvents at room temperature
Format: physicochemical
Set-up: key: I, insoluble; P, precipitating; S, soluble at ~20 mg/mL; G, gel at room temperature; number is minimum gelation concentration
Measurement context: Hexane, room temperature

{"columns": ["Compound", "Gelation test result"],
 "data": [
  ["CCOC(=O)CNC(=O)CN(Cc1ccc(OC)cc1)C(=O)c1ccccc1 [Compound 23]", "I"],
  ["COC1OC2COC(c3ccccc3)OC2C(O)C1N(CC(=O)NC1CCCCC1)C(=O)c1ccccc1 (stereo not shown) [Compound 24]", "P"],
  ["O=C(CN(Cc1ccccc1)C(=O)c1ccc([N+](=O)[O-])cc1)NC1CCCCC1 [Compound 18]", "I"],
  ["O=C(CN(Cc1ccccc1)C(=O)c1ccc(Br)cc1)NC1CCCCC1 [Compound 17]", "I"]
]}

----------
Experimental details: Gel melting temperatures
Type: physicochemical
Measurement context: gel in DMSO:H2O (1:2) at its minimum gelation concentration
Kindly return true (1) if reported T3, temperature at which gel is fully melted is no lower than 100 °C; return false (0) if it is lower.

{"columns": ["Molecule", "Assigned class"],
 "data": [
  ["C#CCCC(=O)N(CC(=O)NC1CCCCC1)Cc1ccccc1", "true (1)"],
  ["O=C(CN(Cc1ccccc1)C(=O)c1ccc(Br)cc1)NC1CCCCC1", "false (0)"],
  ["CCOC(=O)CNC(=O)CN(Cc1ccc(OC)cc1)C(=O)c1ccccc1", "false (0)"],
  ["COc1ccc(CN(CC(=O)NC2CCCCC2)C(=O)c2ccc(Br)cc2)cc1", "true (1)"],
  ["CCOC(=O)CNC(=O)CN(C(=O)c1ccc(Br)cc1)C1C(OC)OC2COC(c3ccccc3)OC2C1O (stereo not shown)", "true (1)"],
  ["O=C(CN(Cc1ccccc1)C(=O)c1ccc([N+](=O)[O-])cc1)NC1CCCCC1", "true (1)"]
]}

Now turn to the next molecule.
Query :: Reported T3, temperature at which gel is fully melted reaches at least 100 °C for CCOC(=O)CNC(=O)CN(Cc1ccc(OC)cc1)C(=O)c1ccc(Br)cc1 ?
Result :: false (0)

----------
Each record here notes measured preliminary MGC (stable gel).
Experimental details: Gelation test in solvents at room temperature
Type: physicochemical
Measurement context: DMSO:H2O 1:1; Table 3
Enter your answer as a number in mg/mL; do not include the unit.

{"columns": ["Compound", "Unit symbol", "preliminary MGC (stable gel)"],
 "data": [
  ["CC1(C)OCC(CN(CC(=O)NC2CCCCC2)C(=O)c2ccc(Br)cc2)O1 (stereo not drawn) [Compound 27]", "mg/mL", 20.0],
  ["CCOC(=O)CNC(=O)CN(C(=O)c1ccc(Br)cc1)C1C(OCC)OC2COC(c3ccccc3)OC2C1O (stereo not drawn) [Compound 32]", "mg/mL", 20.0],
  ["COc1ccc(CN(CC(=O)NCS(=O)(=O)c2ccc(C)cc2)C(=O)c2ccc(Br)cc2)cc1 [Compound 35]", "mg/mL", 20.0],
  ["COC1OC2COC(c3ccccc3)OC2C(O)C1N(CC(=O)NC1CCCCC1)C(C)=O (stereo not drawn) [Compound 31]", "mg/mL", 10.0]
]}

Query :: Name the recorded preliminary MGC (stable gel) for CCOC(=O)CNC(=O)CN(Cc1ccc(OC)cc1)C(=O)CCC(=O)NC1C(OC)OC2COC(c3ccccc3)OC2C1O (stereo not drawn) [Compound 34] .
Result :: 20.0

Query :: Name the recorded preliminary MGC (stable gel) for COC1OC(CO)C(O)C(O)C1N(CC(=O)NC1CCCCC1)C(=O)c1ccc(Br)cc1 (stereo not drawn) [Compound 40] .
Result :: 20.0

----------
Experimental details: Gelation test in solvents at room temperature
Assay type: physicochemical
Parameters: key: I, insoluble; P, precipitating; S, soluble at ~20 mg/mL; G, gel at room temperature; number is minimum gelation concentration
Measurement context: Hexane, room temperature

{"columns": ["Molecule", "Gelation test result"],
 "data": [
  ["COc1ccc(CN(CC(=O)NC2CCCCC2)C(=O)c2ccc(Br)cc2)cc1 [Compound 20]", "P"],
  ["O=C(CN(Cc1ccccc1)C(=O)c1ccccc1)NC1CCCCC1 [Compound 16]", "I"]
]}

----------
Experimental details: Gelation test in solvents at room temperature
Type: physicochemical
Set-up: key: S, soluble (starting test at 20 mg/mL); I, insoluble; P, precipitate; G, stable gel, the numbers after G are preliminary MGCs in mg/mL; UG, slightly unstable gels or partial gels, concentrations are 20 mg/mL unless otherwise noted
Measurement context: EtOH:H2O (1:2); Table 3
Experimental: Gelation tests were performed by adding incremental amounts of compounds to a solvent or solvent system at room temperature and observing the results (i.e., gel formation, solubility of compounds, insolubility of compounds, or formation of a precipitate). […] The term “precipation” means that the compound dissolves upon heating and sonicating, however, it crashes out of solution when the heat is removed. After the compounds were synthesized, they were screened for gelation properties. […]
Measurement label: Gelation result

Guide cases for Gelation result, answers given:
{"columns": ["Compound", "Gelation result"],
 "data": [
  ["COc1ccc(CN(CC(=O)NCC(=O)O)C(=O)c2ccc(Br)cc2)cc1", "P"],
  ["COc1ccc(CN(CC(=O)Nc2ccc(Oc3ccc(NC(=O)CN(Cc4ccc(OC)cc4)C(=O)c4ccc(Br)cc4)cc3)cc2)C(=O)c2ccc(Br)cc2)cc1", "P"],
  ["CCOC(=O)CNC(=O)CN(Cc1ccccc1)C(=O)c1ccc(C(=O)N(CC(=O)NCC(=O)OCC)Cc2ccccc2)cc1", "P"],
  ["COc1ccc(C(C(=O)NC2CCCCC2)N(C(C)=O)[C@H](C)c2ccccc2)cc1 (single isomer, unassigned) [Compound 38b]", "P"],
  ["COc1ccc(CN(CC(=O)NCS(=O)(=O)c2ccc(C)cc2)C(=O)c2ccc(Br)cc2)cc1", "G"]
]}

Query :: Name the recorded Gelation result for CC1(C)OCC(CN(CC(=O)NC2CCCCC2)C(=O)c2ccc(Br)cc2)O1 (stereo not drawn) .
Result :: P

Query :: Name the recorded Gelation result for CCOC(=O)CNC(=O)CN(Cc1ccc(OC)cc1)C(=O)CCC(=O)NC1C(OC)OC2COC(c3ccccc3)OC2C1O (stereo not drawn) .
Result :: G

Query :: Name the recorded Gelation result for COc1ccc(C(C(=O)NC2CCCCC2)N(Cc2ccccc2)C(C)=O)cc1 (racemic) .
Result :: G

Query :: Name the recorded Gelation result for CCOC(=O)CNC(=O)CN(CCNC(=O)OC(C)(C)C)C(=O)Cc1ccc2ccccc2c1 .
Result :: P
